B1: CPEB3 Ribozyme (parent)
chain: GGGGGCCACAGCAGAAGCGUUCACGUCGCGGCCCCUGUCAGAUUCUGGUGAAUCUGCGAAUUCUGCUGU

# Variants of: B1
# protocol-details: self-cleavage, relative activity (ratio to wild type); higher = more cleavage; co-transcriptional
self-cleavage below 0.7 gives Not satisfied; self-cleavage at or above it gives Satisfied.

| variant-identifier | assigned-category |
| --- | --- |
| G4U U69C | Satisfied |
| G11A U43G | Not satisfied |
| C63U G68U | Satisfied |
| G17C C39U | Not satisfied |
| G48A C57A | Not satisfied |
| C12G G56A | Satisfied |
| A16C U62G | Not satisfied |
| U36C C63U | Satisfied |
| G28U C54U | Not satisfied |
| G3A G58C | Not satisfied |
| C18A U64A | Not satisfied |
| C32A U49G | Not satisfied |
| G48A U53G | Satisfied |
| C6G G41C | Not satisfied |
| G17C C18G | Not satisfied |
| U55G G56C | Satisfied |
| U21C C22G | Not satisfied |
| U38G A40G | Not satisfied |
| C9G A52U | Satisfied |
| U64G U67A | Satisfied |
| G2A A10U | Not satisfied |

Measured values drawn from the RNAGym collection of RNA variant scans (doi:10.7554/elife.80360) for this set.
